Biological target: T1, PUF4 RNA-binding domain (Saccharomyces cerevisiae, UniProt P25339 537-888)
T1 sequence: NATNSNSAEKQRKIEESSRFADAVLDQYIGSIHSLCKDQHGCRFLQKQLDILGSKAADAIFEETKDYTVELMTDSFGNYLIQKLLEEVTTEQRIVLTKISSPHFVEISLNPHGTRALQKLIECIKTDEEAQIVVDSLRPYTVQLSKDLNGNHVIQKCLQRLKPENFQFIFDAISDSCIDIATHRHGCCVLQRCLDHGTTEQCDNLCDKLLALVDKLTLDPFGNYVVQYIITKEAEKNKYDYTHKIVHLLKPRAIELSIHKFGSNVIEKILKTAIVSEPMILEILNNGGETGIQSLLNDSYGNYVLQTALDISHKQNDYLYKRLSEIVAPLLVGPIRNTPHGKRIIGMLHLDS
Experiment: Mg; RNA-MaP; 20 mM Na-HEPES pH 7.4, 30 mM KOAc, 0.75 mM MgCl2, 0.1% Tween-20, 5% glycerol, 0.1 mg/mL BSA, 2 mM DTT; 25 C; 0.0125-409.6 nM protein
Details: tags: N-His6-TEV cleaved; C-SNAP kept, Cy3B-labelled; label: tethered on chip by stalled RNA polymerase
pKd: −log10 of the molar value.
Mark 0 for pKd values under 8, and 1 for everything at or above.

Field: example entries. Status: answers known.
binder: UCUCUUCUCUUGUAUAUAUAUCUCUU (ssRNA) [Ie_S1_P3E.2_K3.1_C3.2_[+-2TC]_H3.1_A3.1_F3.1_T3.2]
category label: 1

binder: Ic_S4_P5E.1_K5.1_C5.1_H5.1_A5.1_[T5G]_[T6C]_[A7G]_F5.1_[T9A]_T5.1 (ssRNA) RNA: UUUGACAACUGAUCGUUCUUUCUUGUAGCGUAAUUCUUUCUCGAUCAGUUGUCUUU
category label: 0

binder: UCUCUUCUUGUAUUAUAUAUCUCUU (ssRNA) [Ie_S1_P3E.2_K3.1_C3.2_H3.1_A3.1_[+5T]_F3.1_T3.2]
category label: 1

binder: Id_ii_S2_P4E.2_K4.1_C4.2_[T-1C]_H4.1_A4.1_F4.1_T4.2_[G10T] (ssRNA) RNA: UUUGAUUAAUAUGAUAUCGUUCUUUCUCCUGUAUAUUAUUUUCUUUCUCGAUAUCAUAUUAAUCUUU
category label: 1

binder: UCUCUUUGUAAACUAUCUCUU (ssRNA) [Ic_S1_P4E.1_K4.1_C4.1_H4.1_A4.1_[T5A]_[T7C]_F4.1_T4.1]
category label: 1

binder: Ic_S2_P3E.1_K3.1_C3.1_H3.1_A3.1_[A6T]_F3.1_[T7A]_T3.1 (ssRNA) RNA: UUUGAUUAAUAUGAUAUCGUUCUUUCUUGUAUUAAUUCUUUCUCGAUAUCAUAUUAAUCUUU
category label: 0

binder: UCUCUUUGUAACUAAUCUCUU (ssRNA) [Ic_S1_P4E.1_K4.1_C4.1_H4.1_A4.1_[T5A]_[A6C]_F4.1_[T8A]_T4.1]
category label: 0

binder: Ic_S2_P4E.1_K4.1_C4.1_H4.1_A4.1_[A6C]_[T7A]_F4.1_[A9T]_T4.1 (ssRNA) RNA: UUUGAUUAAUAUGAUAUCGUUCUUUCUUGUAUCAUUUUCUUUCUCGAUAUCAUAUUAAUCUUU
category label: 1

binder: UCUCUUUGUAAUAAUUCUCUU (ssRNA) [Ic_S1_P4E.1_K4.1_C4.1_H4.1_A4.1_[T5A]_[A6T]_[T7A]_F4.1_[T8A]_[A9T]_T4.1]
category label: 0

binder: UCUCUUUGUAAAAUUUUCUCUU (ssRNA) [Ic_S1_P5E.1_K5.1_C5.1_H5.1_A5.1_[T5A]_[T6A]_F5.1_[A10T]_T5.1]
category label: 0

Quick check, pKd >= 8? UCUCUUUGUACAGCAUUCUCUU (ssRNA) [Ic_S1_P5E.1_K5.1_C5.1_H5.1_A5.1_[T5C]_[T6A]_[A7G]_F5.1_[T8C]_[T9A]_[A10T]_T5.1] 0

Subsequent entry: UCUCUUUGUAUUACUCUCUU (ssRNA) [Ic_S1_P3E.1_K3.1_C3.1_H3.1_A3.1_[A6T]_F3.1_[T7A]_[A8C]_T3.1] 0
